# K obs / 1 annotations
# TARGET: Neutrophil elastase (Homo sapiens) (UniProt P08246)
# Sequence (P08246 whole entry): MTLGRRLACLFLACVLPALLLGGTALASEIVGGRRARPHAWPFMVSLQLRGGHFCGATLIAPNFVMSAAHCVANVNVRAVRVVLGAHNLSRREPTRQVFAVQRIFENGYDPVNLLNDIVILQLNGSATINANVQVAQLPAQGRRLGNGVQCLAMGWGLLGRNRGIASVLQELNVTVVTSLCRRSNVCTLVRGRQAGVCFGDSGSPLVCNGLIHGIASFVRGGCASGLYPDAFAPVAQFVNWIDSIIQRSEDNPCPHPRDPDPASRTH
# PROTOCOL DETAILS: Inhibitory activity against human Leukocyte elastase
READOUT KIND: K obs / 1

molecule="COC(=O)C(Cc1cccc(C(F)(F)F)c1)NC(=O)n1ccnc1 (stereo not drawn)" readout_kind="K obs / 1" assay_value="1100 M⁻¹ s⁻¹"
molecule=O=C(NCCc1cccc(F)c1)n1ccnc1 readout_kind="K obs / 1" assay_value="38 M⁻¹ s⁻¹"
molecule=O=C(NCCc1cccc(F)c1)S(=O)(=O)O readout_kind="K obs / 1" assay_value="18 M⁻¹ s⁻¹"
molecule="COC(=O)C(Cc1cccc(F)c1)NC(=O)n1ccnc1 (stereo not drawn)" readout_kind="K obs / 1" assay_value="318 M⁻¹ s⁻¹"
molecule=O=C(NCCc1cccc(C(F)(F)F)c1)n1ccnc1 readout_kind="K obs / 1" assay_value="483 M⁻¹ s⁻¹"
molecule="COC(=O)C(Cc1ccccc1)NC(=O)n1ccccc1=O (stereo not drawn)" readout_kind="K obs / 1" assay_value="2330 M⁻¹ s⁻¹"
molecule="COC(=O)C(Cc1cccc(F)c1)NC(=O)S(=O)(=O)O (racemic)" readout_kind="K obs / 1" assay_value="57 M⁻¹ s⁻¹"
molecule=O=C(NCCc1ccccc1)S(=O)(=O)O readout_kind="K obs / 1" assay_value="4 M⁻¹ s⁻¹"
molecule=O=C(Nc1cn(-c2cccc(F)c2)cn1)n1ccccc1=O readout_kind="K obs / 1" assay_value="317 M⁻¹ s⁻¹"
molecule="COC(=O)C(Cc1ccccc1)NC(=O)n1ccnc1 (stereo not drawn)" readout_kind="K obs / 1" assay_value="2070 M⁻¹ s⁻¹"
molecule="COC(=O)C(Cc1cccc(C(F)(F)F)c1)NC(=O)S(=O)(=O)O (racemic)" readout_kind="K obs / 1" assay_value="13 M⁻¹ s⁻¹"
molecule=O=C(Nc1cn(-c2cccc(C(F)(F)F)c2)cn1)ON1C(=O)CCC1=O readout_kind="K obs / 1" assay_value="13500 M⁻¹ s⁻¹"
molecule=O=C(Nc1cn(-c2cccc(F)c2)cn1)ON1C(=O)CCC1=O readout_kind="K obs / 1" assay_value="823 M⁻¹ s⁻¹"
